Assay: in vivo
Details: female, NIH-III nude, mouse, ip, pH 4
Measured endpoint: MTD (µmol/kg)
Only the number, expressed in µmol/kg, is required.

Entry under review: `Cn1cnc([N+](=O)[O-])c1C[N+](C)(C)C/C=C/C(=O)Nc1cc2c(Nc3ccc(F)c(Br)c3)ncnc2cn1` . Reported MTD?
133

====

Biological target: UniProt P00533
Sequence (P00533 25-1210): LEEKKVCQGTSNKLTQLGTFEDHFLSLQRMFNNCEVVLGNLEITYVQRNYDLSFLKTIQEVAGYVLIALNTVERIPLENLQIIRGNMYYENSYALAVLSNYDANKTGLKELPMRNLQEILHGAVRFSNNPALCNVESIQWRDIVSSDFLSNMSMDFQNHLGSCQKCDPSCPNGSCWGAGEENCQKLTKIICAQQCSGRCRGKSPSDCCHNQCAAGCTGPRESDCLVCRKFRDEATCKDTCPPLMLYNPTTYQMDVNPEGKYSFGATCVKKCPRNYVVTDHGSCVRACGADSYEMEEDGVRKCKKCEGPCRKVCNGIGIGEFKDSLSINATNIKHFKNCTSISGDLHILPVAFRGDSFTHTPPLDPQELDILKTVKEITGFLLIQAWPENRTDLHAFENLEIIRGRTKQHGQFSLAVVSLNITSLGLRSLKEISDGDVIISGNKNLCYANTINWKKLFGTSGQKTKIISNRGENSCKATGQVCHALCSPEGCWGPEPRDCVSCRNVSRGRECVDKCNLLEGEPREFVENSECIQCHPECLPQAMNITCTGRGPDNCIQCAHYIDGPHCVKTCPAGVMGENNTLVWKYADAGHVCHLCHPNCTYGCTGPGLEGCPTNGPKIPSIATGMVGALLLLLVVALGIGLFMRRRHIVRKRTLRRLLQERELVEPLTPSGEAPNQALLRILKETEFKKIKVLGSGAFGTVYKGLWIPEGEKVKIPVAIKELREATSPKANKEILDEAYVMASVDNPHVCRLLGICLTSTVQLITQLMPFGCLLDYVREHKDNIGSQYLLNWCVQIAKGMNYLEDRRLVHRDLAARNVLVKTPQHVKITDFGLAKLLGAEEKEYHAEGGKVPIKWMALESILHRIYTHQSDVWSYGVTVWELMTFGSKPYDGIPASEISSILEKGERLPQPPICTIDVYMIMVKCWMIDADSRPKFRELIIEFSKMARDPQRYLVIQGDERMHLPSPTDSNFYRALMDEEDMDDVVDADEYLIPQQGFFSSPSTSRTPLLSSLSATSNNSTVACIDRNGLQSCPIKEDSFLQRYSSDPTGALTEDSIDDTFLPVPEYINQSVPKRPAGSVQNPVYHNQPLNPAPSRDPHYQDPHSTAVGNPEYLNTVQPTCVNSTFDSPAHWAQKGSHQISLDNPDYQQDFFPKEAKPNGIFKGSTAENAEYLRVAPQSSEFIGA
Assay: Inhibition of erbB1 autophosphorylation in EGF-stimulated intact A431 cells (Western blot)
Conditions: read-out: Cellular Enzyme Inhibition IC50 erbB1; Table 2; intact A431 cells, EGF-stimulated, average of two determinations
Measured endpoint: IC50 (nM)
The answer is to be given in nM; state only the numeric part.

What value of IC50 has been reported for the following molecule? Cn1c(C[N+](C)(C)C/C=C/C(=O)Nc2ccc3ncnc(Nc4cccc(Br)c4)c3c2)ccc1[N+](=O)[O-].[Br-] [Compound 19]
962
